system: Staphylococcus aureus ATCC 25923; type: cell-based
Non-standard residues stand in square brackets, D forms with d. Residues, ends and D or L forms follow the SMILES beside them. dPhe(3,4-F2) = N[C@H](Cc1ccc(F)c(F)c1)C(=O)O; d2Nal = N[C@H](Cc1ccc2ccccc2c1)C(=O)O
# MIC Staphylococcus aureus ATCC 25923 per entry
Reported property: MIC Staphylococcus aureus ATCC 25923 (mg/L)

Compound: CC(=O)N[C@H](CCCNC(=N)N)C(=O)N[C@H](CCCCN)C(=O)N[C@H](CC(C)C)C(=O)N[C@H](CC(C)C)C(=O)N[C@H](Cc1ccc(F)c(F)c1)C(=O)N[C@H](CCCCN)C(=O)N[C@H](CC(C)C)C(=O)N[C@H](CCCCN)C(=O)N[C@H](Cc1ccc(F)c(F)c1)C(=O)N[C@H](CCCCN)C(=O)N[C@H](CCCNC(=N)N)C(N)=O [LV-6] (Ac-[dR][dK][dL][dL][dPhe(3,4-F2)][dK][dL][dK][dPhe(3,4-F2)][dK][dR]-NH2)
Meas value: 1
--
Compound: CC(=O)N[C@H](CCCNC(=N)N)C(=O)N[C@H](CCCCN)C(=O)N[C@H](CC(C)C)C(=O)N[C@H](CC(C)C)C(=O)N[C@H](Cc1ccc2ccccc2c1)C(=O)N[C@H](CCCCN)C(=O)N[C@H](CC(C)C)C(=O)N[C@H](CCCCN)C(=O)N[C@H](Cc1ccc2ccccc2c1)C(=O)N[C@H](CCCCN)C(=O)N[C@H](CCCNC(=N)N)C(N)=O [LV-18] (Ac-[dR][dK][dL][dL][d2Nal][dK][dL][dK][d2Nal][dK][dR]-NH2)
Meas value: 2
--
Compound: CC(=O)N[C@H](CCCCN)C(=O)N[C@H](CCCCN)C(=O)N[C@H](CC(C)C)C(=O)N[C@H](CC(C)C)C(=O)N[C@H](Cc1ccc(F)c(F)c1)C(=O)N[C@H](CCCNC(=N)N)C(=O)N[C@H](CC(C)C)C(=O)N[C@H](CCCCN)C(=O)N[C@H](Cc1ccc(F)c(F)c1)C(=O)N[C@H](CCCNC(=N)N)C(=O)N[C@H](CCCCN)C(N)=O [LV-25] (Ac-[dK][dK][dL][dL][dPhe(3,4-F2)][dR][dL][dK][dPhe(3,4-F2)][dR][dK]-NH2)
Meas value: 2
--
Compound: CC(=O)N[C@H](CCCNC(=N)N)C(=O)N[C@H](CCCCN)C(=O)N[C@H](CC(C)C)C(=O)N[C@H](CC(C)C)C(=O)N[C@H](Cc1ccccc1)C(=O)N[C@H](CCCNC(=N)N)C(=O)N[C@H](CC(C)C)C(=O)N[C@H](CCCCN)C(=O)N[C@H](Cc1ccc2ccccc2c1)C(=O)N[C@H](CCCNC(=N)N)C(=O)N[C@H](CCCCN)C(N)=O [LV-3] (Ac-[dR][dK][dL][dL][dF][dR][dL][dK][d2Nal][dR][dK]-NH2)
Meas value: 2
--
Compound: CC(=O)N[C@H](CCCNC(=N)N)C(=O)N[C@H](CCCNC(=N)N)C(=O)N[C@H](CC(C)C)C(=O)N[C@H](CC(C)C)C(=O)N[C@H](Cc1ccc2ccccc2c1)C(=O)N[C@H](CCCNC(=N)N)C(=O)N[C@H](CC(C)C)C(=O)N[C@H](CCCCN)C(=O)N[C@H](Cc1ccc2ccccc2c1)C(=O)N[C@H](CCCNC(=N)N)C(=O)N[C@H](CCCCN)C(N)=O [LV-21] (Ac-[dR][dR][dL][dL][d2Nal][dR][dL][dK][d2Nal][dR][dK]-NH2)
Meas value: 1
